# Target Desc: human GALK (Homo sapiens)
# Sequence (P51570 whole entry): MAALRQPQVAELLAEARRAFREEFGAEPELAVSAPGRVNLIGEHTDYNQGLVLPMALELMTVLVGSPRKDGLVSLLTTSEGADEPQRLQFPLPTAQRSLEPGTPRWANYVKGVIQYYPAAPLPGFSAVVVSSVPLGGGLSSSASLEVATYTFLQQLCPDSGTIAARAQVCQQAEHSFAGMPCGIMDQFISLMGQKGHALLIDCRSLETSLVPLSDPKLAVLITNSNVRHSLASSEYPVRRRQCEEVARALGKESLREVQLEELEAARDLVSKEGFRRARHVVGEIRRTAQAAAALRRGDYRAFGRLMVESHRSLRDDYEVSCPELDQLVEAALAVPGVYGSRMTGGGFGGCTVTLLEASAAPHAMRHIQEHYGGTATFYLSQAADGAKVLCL
Recorded Endpoint: IC50 (nM)
Write the value in nM as a bare number.

// recorded IC50 for N#CC1=C(SCc2ccccc2)SC(c2ccccc2O)NC1=O (stereo not shown) : 1400
